Source: paper PMC11931385

# ASSAY TARGET: T1, Rb^P I703V (human, UniProt P06400 380-788, I703V)
# T1 construct: also called variant 65
# T1 sequence (looked up): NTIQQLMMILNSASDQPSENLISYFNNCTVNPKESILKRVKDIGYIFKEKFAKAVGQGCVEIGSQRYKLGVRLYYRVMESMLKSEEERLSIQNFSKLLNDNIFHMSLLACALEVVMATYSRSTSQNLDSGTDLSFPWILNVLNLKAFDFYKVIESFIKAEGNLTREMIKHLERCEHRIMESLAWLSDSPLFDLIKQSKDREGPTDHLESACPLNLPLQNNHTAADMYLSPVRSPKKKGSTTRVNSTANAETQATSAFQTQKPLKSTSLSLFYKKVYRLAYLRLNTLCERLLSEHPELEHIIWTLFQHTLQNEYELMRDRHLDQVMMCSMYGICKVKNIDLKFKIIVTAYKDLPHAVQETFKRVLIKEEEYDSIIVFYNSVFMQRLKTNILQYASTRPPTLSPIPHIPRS
# TEST METHOD NOTES: fluorescence polarisation; 37 °C, after the 25 °C reading ramped over 7 min to 37 °C and 2 min incubation; unlabeled Rb^P against 1.5 nM TMR-E2F1^TD or 7.5 nM TMR-E7^LxCxE; 25 mM Tris pH 8.0, 200 mM NaCl, 1 mM DTT, 0.1% Tween-20; apparent Kd
# CONDITION: both partners purified
pKd: −log10 of the molar value. No end group written: not given here. TMR = tetramethyl rhodamine dye
PARAMETER MEASURED: pKd

>  <BINDER>
{TMR}-GEGIRDLFDCDFGDLTPLD (also called E2F^TD; source: synthetic peptide, bought: GenScript) [TMR-E2F1^TD, peptide of the E2F1 transactivation domain]

>  <RESULT VALUE>
7.00

$$$$
>  <BINDER>
DLYCYEQLN (also: TMR label, position not given here, source: synthetic peptide, bought: GenScript) [TMR-E7^LxCxE, LxCxE peptide of the E7 oncoprotein from HPV]

>  <RESULT VALUE>
7.28

$$$$
